// data source = patent US20250177391A1

experiment: Liver S9 stability, rat; assay type: in vitro ADME; settings: SD
PARAMETER MEASURED: half-life (min)
Numeric only. Scale: min

Q) Indicate its recorded half-life; the compound in question is Cc1ccc(O)cc1Nc1ccnc(Nc2cccc(S(C)(=O)=O)c2)n1 [Compound 1]
A) 20

###

Form field: # of Hits, S(10) (one value per entry).
test system: 97 kinases (90 WT kinase and 7 mutants); assay: Kinase selectivity profiling (ScanEDGE, DiscoveRx) competition binding, qPCR readout; conditions: screened at 1000 nM; kinases inhibited by >90%
Write no unit; give the number alone.

LINE NOTATION: COc1cc(Nc2nccc(Nc3ccc(N)cc3)n2)cc(S(C)(=O)=O)c1
# of Hits, S(10): 11

LINE NOTATION: Cc1ccc(O)cc1Nc1ccnc(Nc2ccc(C(N)=O)cc2)n1
# of Hits, S(10): 8

LINE NOTATION: Cc1ccc(O)cc1Nc1ccnc(Nc2cccc(S(C)(=O)=O)c2)n1
# of Hits, S(10): 22

Q) Recall the reported # of Hits, S(10) of COc1ccc(S(N)(=O)=O)cc1Nc1nccc(N(C)c2ccc(N)cc2)n1 on 97 kinases (90 WT kinase and 7 mutants) and write it down.
A) 8

###

These compounds were tested on DDR2 (h) (Homo sapiens (Human), UniProt Q16832); IC50 is the recorded read-out.
Sequence (Q16832 22-855): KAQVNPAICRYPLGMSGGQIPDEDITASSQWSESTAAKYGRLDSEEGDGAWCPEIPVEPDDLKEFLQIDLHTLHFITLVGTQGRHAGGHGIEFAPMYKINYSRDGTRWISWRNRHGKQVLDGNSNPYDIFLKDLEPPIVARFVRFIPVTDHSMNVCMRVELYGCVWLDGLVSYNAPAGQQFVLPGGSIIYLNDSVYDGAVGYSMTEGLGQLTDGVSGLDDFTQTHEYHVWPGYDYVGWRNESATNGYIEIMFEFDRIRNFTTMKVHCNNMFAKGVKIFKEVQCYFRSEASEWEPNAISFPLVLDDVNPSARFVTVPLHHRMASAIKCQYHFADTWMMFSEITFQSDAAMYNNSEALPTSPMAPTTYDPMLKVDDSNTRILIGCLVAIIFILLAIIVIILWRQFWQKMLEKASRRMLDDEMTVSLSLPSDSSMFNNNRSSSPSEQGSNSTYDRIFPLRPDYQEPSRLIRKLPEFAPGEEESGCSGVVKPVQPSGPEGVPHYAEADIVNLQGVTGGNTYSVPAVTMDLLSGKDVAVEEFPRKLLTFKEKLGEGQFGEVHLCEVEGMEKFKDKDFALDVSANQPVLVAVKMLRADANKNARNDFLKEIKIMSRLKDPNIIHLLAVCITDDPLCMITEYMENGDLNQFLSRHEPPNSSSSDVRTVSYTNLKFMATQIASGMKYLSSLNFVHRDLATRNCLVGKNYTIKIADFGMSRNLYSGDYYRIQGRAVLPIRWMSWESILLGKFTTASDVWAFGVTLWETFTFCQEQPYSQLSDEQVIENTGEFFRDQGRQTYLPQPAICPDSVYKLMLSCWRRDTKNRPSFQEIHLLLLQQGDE
Numeric only. Scale: µM

COMPOUND: Cc1ccc(O)cc1Nc1ccnc(Nc2ccc(C(N)=O)cc2)n1 [Compound 2]
ASSAY TARGET: DDR2 (h) (Homo sapiens (Human), UniProt Q16832)
READING: 0.156
//
COMPOUND: COc1cc(Nc2nccc(Nc3ccc(N)cc3)n2)cc(S(C)(=O)=O)c1 [Compound 4]
ASSAY TARGET: DDR2 (h) (Homo sapiens (Human), UniProt Q16832)
READING: 1.57

Here is another compound to look at.
Q) Indicate its recorded IC50; the compound in question is Cc1ccc(O)cc1Nc1ccnc(Nc2cccc(S(C)(=O)=O)c2)n1 [Compound 1]
A) 0.26

###

Form field: Selectivity Score S(1) (one value per entry).
system: 97 kinases (90 WT kinase and 7 mutants); assay: Kinase selectivity profiling (ScanEDGE, DiscoveRx) competition binding, qPCR readout; settings: number of hits/number of assays, excluding mutants; 1000 nM
Write no unit; give the number alone.

Worked set:
COMPOUND: Cc1ccc(O)cc1Nc1ccnc(Nc2cccc(S(C)(=O)=O)c2)n1 [Compound 1]
Selectivity Score S(1): 0.078
--
COMPOUND: COc1cc(Nc2nccc(Nc3ccc(N)cc3)n2)cc(S(C)(=O)=O)c1 [Compound 4]
Selectivity Score S(1): 0.022
--
COMPOUND: Cc1ccc(O)cc1Nc1ccnc(Nc2ccc(C(N)=O)cc2)n1 [Compound 2]
Selectivity Score S(1): 0.033

Here is another compound to look at.
Q) Recall the reported Selectivity Score S(1) of COc1ccc(S(N)(=O)=O)cc1Nc1nccc(N(C)c2ccc(N)cc2)n1 [Compound 3] on 97 kinases (90 WT kinase and 7 mutants) and write it down.
A) 0.056

###

These compounds were tested on DDR1 (h) (Homo sapiens (Human)); IC50 is the recorded read-out.
Sequence (Q08345 19-913): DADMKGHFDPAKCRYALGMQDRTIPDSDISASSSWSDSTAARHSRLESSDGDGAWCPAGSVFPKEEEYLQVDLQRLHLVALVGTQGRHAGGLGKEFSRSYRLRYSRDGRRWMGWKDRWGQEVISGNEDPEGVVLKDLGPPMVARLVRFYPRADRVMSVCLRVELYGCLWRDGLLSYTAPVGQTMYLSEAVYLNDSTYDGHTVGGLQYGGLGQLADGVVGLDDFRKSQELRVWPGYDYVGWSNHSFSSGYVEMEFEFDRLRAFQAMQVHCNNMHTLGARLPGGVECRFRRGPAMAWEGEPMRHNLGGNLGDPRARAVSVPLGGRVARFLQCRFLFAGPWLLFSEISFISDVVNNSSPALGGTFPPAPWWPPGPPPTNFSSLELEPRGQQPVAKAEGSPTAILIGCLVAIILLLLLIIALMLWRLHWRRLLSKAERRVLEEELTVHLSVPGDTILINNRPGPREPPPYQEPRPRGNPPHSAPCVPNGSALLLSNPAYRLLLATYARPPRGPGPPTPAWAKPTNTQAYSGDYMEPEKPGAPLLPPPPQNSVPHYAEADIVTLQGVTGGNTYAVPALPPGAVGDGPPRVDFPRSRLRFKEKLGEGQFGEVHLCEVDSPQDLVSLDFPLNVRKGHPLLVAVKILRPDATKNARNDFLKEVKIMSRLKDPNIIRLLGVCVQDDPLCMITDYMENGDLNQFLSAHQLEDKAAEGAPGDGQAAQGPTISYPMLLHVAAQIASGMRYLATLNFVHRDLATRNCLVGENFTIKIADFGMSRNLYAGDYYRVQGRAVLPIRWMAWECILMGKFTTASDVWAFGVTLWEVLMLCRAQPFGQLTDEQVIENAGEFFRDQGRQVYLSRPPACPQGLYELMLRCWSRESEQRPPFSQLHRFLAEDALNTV
Please answer using a numeric value trailed by its unit.

Worked set:
LINE NOTATION: Cc1ccc(O)cc1Nc1ccnc(Nc2ccc(C(N)=O)cc2)n1
PARAMETER MEASURED: IC50
READING: 9 nM
//
LINE NOTATION: COc1ccc(S(N)(=O)=O)cc1Nc1nccc(N(C)c2ccc(N)cc2)n1
PARAMETER MEASURED: IC50
READING: 55 nM
//
LINE NOTATION: Cc1ccc(O)cc1Nc1ccnc(Nc2cccc(S(C)(=O)=O)c2)n1
PARAMETER MEASURED: IC50
READING: 13 nM

Here is another compound to look at.
Q) Recall the reported IC50 of COc1cc(Nc2nccc(Nc3ccc(N)cc3)n2)cc(S(C)(=O)=O)c1 on DDR1 (h) (Homo sapiens (Human)) and write it down.
A) 66 nM

###

system: 97 kinases (90 WT kinase and 7 mutants); assay: Kinase selectivity profiling (ScanEDGE, DiscoveRx) competition binding, qPCR readout; details: screened at 1000 nM; kinases inhibited by >65%
PARAMETER MEASURED: # of Hits, S(35)
Write no unit; give the number alone.

Worked set:
LINE NOTATION: Cc1ccc(O)cc1Nc1ccnc(Nc2cccc(S(C)(=O)=O)c2)n1
PARAMETER MEASURED: # of Hits, S(35)
READING: 29

LINE NOTATION: Cc1ccc(O)cc1Nc1ccnc(Nc2ccc(C(N)=O)cc2)n1
PARAMETER MEASURED: # of Hits, S(35)
READING: 22

LINE NOTATION: COc1cc(Nc2nccc(Nc3ccc(N)cc3)n2)cc(S(C)(=O)=O)c1
PARAMETER MEASURED: # of Hits, S(35)
READING: 21

Q) Indicate its recorded # of Hits, S(35); the compound in question is COc1ccc(S(N)(=O)=O)cc1Nc1nccc(N(C)c2ccc(N)cc2)n1
A) 16

###

experiment: PK following IV dosing in male SD rats; conditions: rat, in vivo, IV 1 mg/kg
PARAMETER MEASURED: half-life (min)
Numeric only. Scale: min

Q) Indicate its recorded half-life; the molecule in question is Cc1ccc(O)cc1Nc1ccnc(Nc2cccc(S(C)(=O)=O)c2)n1
A) 19.1
